Molecular target: Epsilon (B.1.427)
reported.property: IC50 (mg/L)
Kindly answer with a numeric value in mg/L, unit omitted.

// worked examples, IC50 included
{"columns": ["binder", "IC50 / mg/L"],
 "data": [
  ["hN2Y (antibody, V domains shown) VH: EVQLVESGGGLVQPGGSLRLSCTVSGFSLSTYAMSWVRQAPGKGLEWIGVIASNADTYYASWAKGRFTISRDNSKNTLYLQMNSLRAEDTAVYYCARHPGSAGYGYAVYYAMDPWGQGTLVTVSS VL: DIQMTQSPSSLSASVGDRVTITCKASEDIRYGLNWYQQKPGKAPKLLIYGANTLEAGVPSRFSGSGSGTDYTLTISSLQPEDFATYYCQQGYSTPLTFGGGTKVEIK", 0.018],
  ["hN2F (antibody, V domains shown) VH: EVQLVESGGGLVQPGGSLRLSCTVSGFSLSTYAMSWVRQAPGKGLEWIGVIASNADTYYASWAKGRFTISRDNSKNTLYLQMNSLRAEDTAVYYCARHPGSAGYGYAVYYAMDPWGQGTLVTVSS VL: DIQMTQSPSSLSASVGDRVTITCKASEDIRYGLNWYQQKPGKAPKLLIYGANTLEAGVPSRFSGSGSGTDFTLTISSLQPEDFATYYCQQGYSTPLTFGGGTKVEIK", 0.0178],
  ["LxC1-G10 (antibody, V domains shown) VH: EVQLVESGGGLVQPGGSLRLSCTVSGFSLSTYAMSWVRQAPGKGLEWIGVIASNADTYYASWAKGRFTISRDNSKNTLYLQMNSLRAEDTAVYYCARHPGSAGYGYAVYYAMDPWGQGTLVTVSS VL: DIQMTQSPSSLSASVGDRVTITCQASERVFYGIDWYQQKPGKAPKLLIYGASALWHGVPSRFSGSGSGTDYTLTISSLQPEDFATYYCQQGYMVPIGFGGGTKVEIK", 0.0169]
]}

Turning now to a further binder:
[in] # IC50 lookup, item C-A11 (antibody, V domains shown) VH: QSLEESGGRLVTPGTPLTLTCTVSGFSLSTYAMSWVRQAPGKGLEWIGVIASNADTYYASWAKGRITISKTSTTVDLKITSPTTEDTATYFCARHPGSAGYGYAVYYAMDPWGPGTLVTVSS VL: AIEMTQSPSSLAASVGDTVTITCKASEDIRYGLNWYQQKLGIAPKLLIYGANTLEAGVPSRFSGSGSETDYTLTISSVQAEDAGIYYCQQGYSTPLTFGAGTKVEIK
[out] 0.014
